Provenance of the data: patent US20190047966A1

# tested system: human histamine H4 receptor (Homo sapiens, UniProt Q9H3N8)
# Construct: purchased PerkinElmer Inc; host or cells: CHO-K1
# Sequence (Q9H3N8 whole entry): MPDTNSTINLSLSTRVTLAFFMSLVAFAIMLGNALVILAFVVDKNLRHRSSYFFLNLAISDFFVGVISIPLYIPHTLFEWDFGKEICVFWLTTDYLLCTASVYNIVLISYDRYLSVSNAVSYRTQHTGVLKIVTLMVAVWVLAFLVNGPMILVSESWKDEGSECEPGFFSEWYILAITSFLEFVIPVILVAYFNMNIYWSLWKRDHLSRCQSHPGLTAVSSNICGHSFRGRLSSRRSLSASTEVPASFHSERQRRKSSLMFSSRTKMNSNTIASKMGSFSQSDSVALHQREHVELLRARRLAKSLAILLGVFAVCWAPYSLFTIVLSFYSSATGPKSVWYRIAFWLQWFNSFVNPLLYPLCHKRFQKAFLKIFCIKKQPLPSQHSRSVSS
# measurement protocol: Evaluation of Human H4 Receptor Affinity ([3H]histamine binding)
# settings: inhibition constant Ki, CHO-K1 membrane preparation, read-out: Evaluation of H4 Receptor Affinity
# Text: Test Example 2: Evaluation of Human H4 Receptor Affinity […]
Counter-ions that a name gives are not always drawn.
measured attribute: Ki

Below, 5 compounds whose answers are already recorded.
> print(dat)
                                   compound  readout.value
1  CN1CCCN(c2nc(N)nc3c2CCc2cc(NS(=O)(=O)c4ccc(OC(F)(F)F)cc4)ccc2-3)CC1 [Example 193, bis(trifluoroacetate)]       < 0.1 µM
2  Nc1nc2c(c(N3CCN(CCOCCOCC(=O)O)CC3)n1)CCc1cc(OCc3ccc(F)cc3)ccc1-2       < 0.1 µM
3  Nc1nc2c(c(N3CCN(CCCCn4cc(C(=O)O)cn4)CC3)n1)CCc1cc(OCc3ccc(Cl)cc3)ccc1-2 [Example 132, dihydrochloride]  0.1 to 0.5 µM
4  Nc1nc2c(c(N3CCN(CCOCCOc4nnn[nH]4)CC3)n1)CCc1cc(OCc3ccc(Cl)cc3)ccc1-2 [Example 115, dihydrochloride]  0.1 to 0.5 µM
5  CNC(=O)COCCOCCN1CCN(c2nc(N)nc3c2CCc2cc(OCc4ccccc4)ccc2-3)CC1       < 0.1 µM

Just so you know, measured Ki for CC(Oc1ccc2c(c1)CCc1c-2nc(N)nc1N1CCN(CCO[C@H]2C[C@@H](C(=O)O)C2)CC1)c1ccc(OC(F)(F)F)cc1 (relative stereo) came out at < 0.1 µM
